The measurements presented in this section are drawn from patent US9487511B2.

# assay procedure: Evaluation of blood cell number in mouse
# Type: in vivo
# run conditions: male ICR mice, oral, repeated 7 or 9 days, 10 mg/kg
Structures can show the parent of a compound that is named as a salt.
Below, each entry is listed alongside its reported Platelets, Mean.

Guide cases for Platelets, Mean, answers given:
molecule: Cc1nnc(NC(=O)c2cc([C@@H]3C[C@H]3NCC3CCOCC3)c(C)s2)s1 [Example 97, hydrochloride]
Platelets, Mean: 1483 10^3 cells
--
molecule: O=C(NC1CCOCC1)c1csc([C@@H]2C[C@H]2NCC2CC2)c1 [Example 71, hydrochloride]
Platelets, Mean: 1197 10^3 cells
--
molecule: Cc1nnc(NC(=O)c2cc([C@@H]3C[C@H]3NC3CCC3)c(C)s2)s1 [Example 99, hydrochloride]
Platelets, Mean: 1380 10^3 cells

Query Cc1nnc(NC(=O)c2cc([C@@H]3C[C@H]3NCC3CC3)c(C)s2)s1 [Example 95, fumarate] yields Platelets, Mean of 1482 10^3 cells

Lab note: Cc1nnc(NC(=O)c2cc([C@@H]3C[C@H]3NCC3CC3)cs2)s1 [Example 82, dihydrochloride] gave Platelets, Mean of 1445 10^3 cells
